Test: Bioavailability in rats
Conditions: rat, in vivo, sc, subcutaneous
Bridge positions count the residues as written; N and C are the ends. Square brackets hold non-standard residues; d marks the D form. Peptide text beside a SMILES is read from it. 2Nal = N[C@@H](Cc1ccc2ccccc2c1)C(=O)O; Lys(iPr) = CC(C)NCCCC[C@H](N)C(=O)O
parameter-measured: bioavailability

[
  {
    "molecule": "CCNC(=O)[C@H](CCCNC(=N)N)NC(=O)[C@H]1CCC(=O)NCC(=O)N[C@@H](Cc2ccc(O)cc2)C(=O)N[C@@H](CCCCNC(C)C)C(=O)N[C@H](CCCNC(=N)N)C(=O)N[C@@H](Cc2ccc3ccccc3c2)C(=O)NCC(=O)N1 [Example 44] (GY[Lys(iPr)][dR][2Nal]G[dE]R-NHEt; lactam N-7)",
    "parameter-measured": "bioavailability",
    "value-measured": "~100%"
  }
]
